Entry source: patent US10047051B2

Molecular target: CFTR ΔF508 mutant (Homo sapiens, UniProt P13569, DEL508-508)
Construct: expressed in transfected cells; host or cells: CFBE41o- cells, adenoviral transduction
Sequence (P13569 with tags, fused parts or gaps DEL508-508): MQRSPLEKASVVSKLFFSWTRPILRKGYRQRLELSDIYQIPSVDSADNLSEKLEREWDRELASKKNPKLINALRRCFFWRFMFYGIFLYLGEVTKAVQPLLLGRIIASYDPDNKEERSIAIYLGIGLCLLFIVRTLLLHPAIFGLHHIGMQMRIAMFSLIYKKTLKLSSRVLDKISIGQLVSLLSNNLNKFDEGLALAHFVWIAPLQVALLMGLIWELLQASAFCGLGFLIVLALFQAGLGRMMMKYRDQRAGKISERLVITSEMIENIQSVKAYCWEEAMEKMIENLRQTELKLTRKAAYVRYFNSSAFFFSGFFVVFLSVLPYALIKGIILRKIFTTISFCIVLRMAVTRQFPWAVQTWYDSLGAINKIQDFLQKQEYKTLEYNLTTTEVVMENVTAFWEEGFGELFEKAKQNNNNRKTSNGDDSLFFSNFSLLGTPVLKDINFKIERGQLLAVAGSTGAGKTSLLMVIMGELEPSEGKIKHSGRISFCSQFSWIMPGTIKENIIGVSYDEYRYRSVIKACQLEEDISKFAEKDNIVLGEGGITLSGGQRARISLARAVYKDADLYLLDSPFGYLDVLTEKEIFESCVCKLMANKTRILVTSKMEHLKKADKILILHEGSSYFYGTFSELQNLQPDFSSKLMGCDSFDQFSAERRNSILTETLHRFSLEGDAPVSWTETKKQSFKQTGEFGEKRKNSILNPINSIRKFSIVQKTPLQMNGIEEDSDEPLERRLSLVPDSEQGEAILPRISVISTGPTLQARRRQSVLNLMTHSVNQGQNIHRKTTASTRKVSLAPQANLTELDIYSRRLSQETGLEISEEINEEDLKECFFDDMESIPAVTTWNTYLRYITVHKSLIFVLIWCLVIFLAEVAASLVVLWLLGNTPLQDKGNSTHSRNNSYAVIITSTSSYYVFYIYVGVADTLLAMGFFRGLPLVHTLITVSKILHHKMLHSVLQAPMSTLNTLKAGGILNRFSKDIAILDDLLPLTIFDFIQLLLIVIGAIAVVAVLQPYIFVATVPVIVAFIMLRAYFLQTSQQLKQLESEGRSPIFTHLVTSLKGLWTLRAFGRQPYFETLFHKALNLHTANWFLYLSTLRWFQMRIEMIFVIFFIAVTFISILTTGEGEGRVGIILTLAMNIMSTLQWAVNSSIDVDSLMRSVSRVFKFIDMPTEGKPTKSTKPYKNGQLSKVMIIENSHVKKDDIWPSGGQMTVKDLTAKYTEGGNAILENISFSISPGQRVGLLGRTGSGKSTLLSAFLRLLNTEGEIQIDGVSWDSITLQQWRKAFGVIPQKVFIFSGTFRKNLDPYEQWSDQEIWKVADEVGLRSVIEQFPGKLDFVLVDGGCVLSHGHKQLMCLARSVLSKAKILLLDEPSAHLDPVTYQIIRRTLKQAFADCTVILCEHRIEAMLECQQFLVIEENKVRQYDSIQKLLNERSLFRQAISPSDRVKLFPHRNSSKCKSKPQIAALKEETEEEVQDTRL
Experiment: YFP-halide influx assay for the CFTR-ΔF508 mutation (CFBE41o- cells)
Type: cell-based
Conditions: forskolin 10.67 μM
Procedure: The YFP halide influx assay measured the functionality of the cystic fibrosis Transmembrane Conductance regulator (CFTR) channels in the cystic fibrosis bronchial epithelium cell line CFBE41o-. The assay was used to evaluate the capacity of compounds to increase the open probability of existing CFTR channels in the membrane. […] The I-induced quenching of fluorescence was recorded on an immediately after injection of iodide for 2 minutes on an FDSS/μCell (Hamamatsu). […]
# % Activation listing for each entry below
METRIC_NAME: % Activation (%)

> print(dat)
                                    compound  uom  endpoint.result
 1  CN(Cc1ccc(F)cc1F)S(=O)(=O)c1cnc(C(=O)NCC(O)C(F)(F)F)c(N)c1 (stereo not shown)    %            110.7
 2  N#CC1CN(C(=O)c2ncc(S(=O)(=O)c3ccc(OC(F)(F)F)cc3)cc2N)C1    %            101.0
 3  Nc1cc(S(=O)(=O)c2cccc(F)c2)cnc1C(=O)N1CC(O)(C(F)(F)F)C1    %            107.4
 4  Nc1cc(S(=O)(=O)c2ccccc2OC(F)(F)F)cnc1C(=O)NC[C@@H](O)C(F)(F)F    %            104.0
 5  Nc1cc(S(=O)(=O)c2ccc(C(F)(F)F)cc2)cnc1C(=O)N[C@@H]1COCC[C@@H]1O (racemic) [Compound 216]    %             98.6
 6  Nc1cc(S(=O)(=O)N2CCOCC2)cnc1C(=O)NCC(O)C(F)(F)F (stereo not shown)    %             96.6
 7  Nc1cc(S(=O)(=O)c2ccc(C(F)(F)F)cc2)cnc1C(=O)NCC1(O)CC1    %            123.3
 8  C[C@H](O)CNC(=O)c1ncc(S(=O)(=O)c2ccc(C(F)(F)F)cc2F)cc1N    %             95.6
 9  CCOCC1(CNC(=O)c2ncc(S(=O)(=O)c3ccc(OC(F)(F)F)cc3)cc2N)CCC1    %             93.2
10  Nc1cc(S(=O)(=O)N2CCC(F)(F)CC2)cnc1C(=O)NCC(O)C(F)(F)F (stereo not shown)    %            101.0
11  Nc1cc(S(=O)(=O)c2ccc(F)cc2)c(-c2ccc(F)cc2)nc1C(=O)NC[C@@H](O)C(F)(F)F    %            102.5
12  Nc1cc(S(=O)(=O)c2ccc(OC(F)(F)F)cc2)cnc1C(=O)NCC(O)C1CCOC1 (stereo not shown)    %            102.0
13  NC(=O)c1ncc(S(=O)(=O)c2ccc(OC(F)(F)F)cc2)cc1N    %              109
14  C[C@H](O)CNC(=O)c1ncc(S(=O)(=O)N(C)Cc2ccc(F)cc2)cc1N    %            107.0
15  CC(C)C1(O)CN(C(=O)c2ncc(S(=O)(=O)c3ccc(C(F)(F)F)cc3F)cc2N)C1    %            101.8
16  COc1ccc(S(=O)(=O)c2cnc(C(=O)NCC(O)C(F)(F)F)c(N)c2)cc1 (stereo not shown)    %            102.0
17  COCCN(C1CC1)S(=O)(=O)c1cnc(C(=O)NCC(O)C(F)(F)F)c(N)c1 (stereo not shown)    %            110.0
18  COCC(O)CNC(=O)c1ncc(S(=O)(=O)N2CCC[C@@H]2C)cc1N (stereo partly shown)    %            108.0
19  Nc1cc(S(=O)(=O)c2ccc(C(F)(F)F)cc2F)cnc1C(=O)NC[C@@H]1CCOC1    %            109.3
20  Nc1cc(S(=O)(=O)c2ccc(C(F)(F)F)cc2)cnc1C(=O)NCC(F)(F)CO    %            117.0
21  Nc1cc(S(=O)(=O)c2ccc(C(F)(F)F)cc2)cnc1C(=O)N[C@@H]1CCC[C@@H]1O    %             96.5
22  CC1(O)CN(C(=O)c2ncc(S(=O)(=O)c3ccc(OC(F)(F)F)cc3)cc2N)C1    %             99.6
